# Tested target: T1, human CTLA-4 (human, UniProt P16410 36-223)
# T1 construct: also called huCTLA4
# T1 sequence (P16410 36-223): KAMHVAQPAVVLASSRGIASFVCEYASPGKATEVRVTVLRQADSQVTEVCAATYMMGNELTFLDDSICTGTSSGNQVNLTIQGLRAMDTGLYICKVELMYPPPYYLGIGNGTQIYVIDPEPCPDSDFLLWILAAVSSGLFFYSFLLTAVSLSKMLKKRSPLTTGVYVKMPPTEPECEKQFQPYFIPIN
# Assay remarks: flow cytometry on CHO cells stably expressing CTLA4; vs CD80 WT IgV-Fc
Readout label: Fold change to WT CD80 (fold)
Please state the figure in fold; there is no need to write the unit.

Binder	Test result
CD80 E35D/M47V/N48K/V68M/K89N IgV-Fc, EAAAK linker (Fc fusion, not shown: a dimerising Fc or GST) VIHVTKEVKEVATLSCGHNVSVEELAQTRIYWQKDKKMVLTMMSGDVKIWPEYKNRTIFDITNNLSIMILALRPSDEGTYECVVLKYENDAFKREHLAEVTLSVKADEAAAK	23

Query :: Suppose we examine the binder CD80 E35D/D46V/M47L/V68M/L85Q/E88D IgV-Fc, (EAAAK)3 linker (Fc fusion, not shown: a dimerising Fc or GST) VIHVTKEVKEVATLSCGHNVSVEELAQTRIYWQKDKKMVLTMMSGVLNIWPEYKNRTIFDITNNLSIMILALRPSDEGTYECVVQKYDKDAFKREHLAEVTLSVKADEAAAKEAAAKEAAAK ; what Fold change to WT CD80 value has been reported?
Result :: 26.8

Query :: Suppose we examine the binder CD80 E35D/D46V/M47L/V68M/L85Q/E88D IgV-Fc, delta linker (Fc fusion, Fused directly to the Fc with no additional linker; also called E35D/D46V/M47L/V68M/L85Q/E88D delta) VIHVTKEVKEVATLSCGHNVSVEELAQTRIYWQKDKKMVLTMMSGVLNIWPEYKNRTIFDITNNLSIMILALRPSDEGTYECVVQKYDKDAFKREHLAEVTLSVKTHTCPPCPAPEAEGAPSVFLFPPKPKDTLMISRTPEVTCVVVDVSHEDPEVKFNWYVDGVEVHNAKTKPREEQYNSTYRVVSVLTVLHQDWLNGKEYKCKVSNKALPAPIEKTISKAKGQPREPQVYTLPPSREEMTKNQVSLTCLVKGFYPSDIAVEWESNGQPENNYKTTPPVLDSDGSFFLYSKLTVDKSRWQQGNVFSCSVMHEALHNHYTQKSLSLSPG ; what Fold change to WT CD80 value has been reported?
Result :: 10.2

Source: patent US20210130436A1
